# Measurement Target: T1, mouse VTCN1 protein (Mus musculus, UniProt Q7TSP5)
# T1 construct: His
# T1 sequence (Q7TSP5 25-257): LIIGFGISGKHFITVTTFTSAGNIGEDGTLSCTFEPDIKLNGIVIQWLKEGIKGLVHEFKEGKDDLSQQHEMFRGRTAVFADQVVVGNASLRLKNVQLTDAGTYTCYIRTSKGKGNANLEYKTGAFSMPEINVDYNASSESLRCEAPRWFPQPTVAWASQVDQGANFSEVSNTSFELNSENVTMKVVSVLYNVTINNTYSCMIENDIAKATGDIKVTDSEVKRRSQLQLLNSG
# Test Details: Affinity by OCTET, mouse VTCN1
# Type: binding
# Test Settings: Table 12
Result Type: mouse k(off)

Which value of mouse k(off) has been reported for 12B5_44B1: fully human VTCN1 antibody; VH SEQ ID NO: 264, VL SEQ ID NO: 268 (antibody, V domains shown) VH: QVQLVQSGAEVKKPGSSMKVSCKASGDTFSSYAISWVRQAPGQGLEWMAGIIPVFGTAHNAQKFQGRVTITADKSTSTAYMELSSLRSEDTAVYYCTRGGPYFDYWGQGTLVTVSS VL: EIVMTQSPATLSVSPGERAALSCRASQSVSSNLAWYQQKPGQAPRLLIYGVSTRATGIPDRFNGSGSGTEFTLTISSLQSEDFGAYYCQQYKKWPFIFGPGTKLEIK in the records? 8.11E−03
